tested on: biotinyl-Ile-oxazolone; assay: self-aminoacylation, catalytic enhancement (BIO) (fold over background); higher = more active; k-Seq, kA / k0A0; sequences stand for … in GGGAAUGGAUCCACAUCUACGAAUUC…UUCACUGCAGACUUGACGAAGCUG
Variants at the floor of the assay were thinned out.
TEST READOUT: self-aminoacylation
Response field accepts a number only; no unit should be typed.

IN: Answer with the recorded self-aminoacylation of CUACAUCAAAAAAUCGGUCUG [Fam1A.1 aminoacylation ribozyme variant] only.
OUT: 0.831

IN: Answer with the recorded self-aminoacylation of CCACACUUCAAGCUUUCGGUC [Fam1B.1 aminoacylation ribozyme variant] only.
OUT: 1.53

IN: Answer with the recorded self-aminoacylation of CCACACUUCAUCCAAUCGGUC [Fam1B.1 aminoacylation ribozyme variant] only.
OUT: 0.883

IN: Answer with the recorded self-aminoacylation of AUUCACCUAGGUCAUCGUGUU [Fam2.2 aminoacylation ribozyme variant] only.
OUT: 0.899

IN: Answer with the recorded self-aminoacylation of AAGUUCGCUAAUGGUCGCAAG [Fam3.1 aminoacylation ribozyme variant] only.
OUT: 1.55

IN: Answer with the recorded self-aminoacylation of AAGGUUGCUAAUAUUCGCAAG [Fam3.1 aminoacylation ribozyme variant] only.
OUT: 1.59

IN: Answer with the recorded self-aminoacylation of AUUACCCUGUUCGUCGAGUGA [Fam2.1 aminoacylation ribozyme variant] only.
OUT: 1.15

IN: Answer with the recorded self-aminoacylation of AUUCACCUAGGGUAUCGGGUG [Fam2.2 aminoacylation ribozyme variant] only.
OUT: 3.84

IN: Answer with the recorded self-aminoacylation of AAGUUUUGUAAUAGUCGCAAG [Fam3.1 aminoacylation ribozyme variant] only.
OUT: 1.64
